This collection of values is drawn from patent EP4059949A1.

Listed below: Kd values for each entry.
molecular target: complement component C3b (obtained after hydrolysis of C3) (UniProt P01024); assay: biolayer interferometry
Sequence (P01024 23-667 limits assumed, chain 1 of 2): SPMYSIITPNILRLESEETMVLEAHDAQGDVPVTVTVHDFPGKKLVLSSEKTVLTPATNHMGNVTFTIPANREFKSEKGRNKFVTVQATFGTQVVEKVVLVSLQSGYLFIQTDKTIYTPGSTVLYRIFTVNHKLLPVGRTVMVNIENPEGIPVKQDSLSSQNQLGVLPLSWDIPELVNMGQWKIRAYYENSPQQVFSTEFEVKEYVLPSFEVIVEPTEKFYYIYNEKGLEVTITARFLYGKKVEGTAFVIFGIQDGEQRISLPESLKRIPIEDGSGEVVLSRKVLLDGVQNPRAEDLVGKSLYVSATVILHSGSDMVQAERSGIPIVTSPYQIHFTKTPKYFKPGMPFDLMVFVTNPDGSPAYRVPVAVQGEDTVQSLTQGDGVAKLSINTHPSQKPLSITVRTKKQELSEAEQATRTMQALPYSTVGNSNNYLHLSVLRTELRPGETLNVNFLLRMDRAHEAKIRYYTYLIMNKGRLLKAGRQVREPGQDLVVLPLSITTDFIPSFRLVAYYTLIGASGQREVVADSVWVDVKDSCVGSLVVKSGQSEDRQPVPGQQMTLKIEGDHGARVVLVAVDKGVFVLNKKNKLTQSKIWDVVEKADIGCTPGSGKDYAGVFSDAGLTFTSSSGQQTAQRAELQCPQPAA
Sequence (P01024 749-1663 limits assumed, chain 2 of 2): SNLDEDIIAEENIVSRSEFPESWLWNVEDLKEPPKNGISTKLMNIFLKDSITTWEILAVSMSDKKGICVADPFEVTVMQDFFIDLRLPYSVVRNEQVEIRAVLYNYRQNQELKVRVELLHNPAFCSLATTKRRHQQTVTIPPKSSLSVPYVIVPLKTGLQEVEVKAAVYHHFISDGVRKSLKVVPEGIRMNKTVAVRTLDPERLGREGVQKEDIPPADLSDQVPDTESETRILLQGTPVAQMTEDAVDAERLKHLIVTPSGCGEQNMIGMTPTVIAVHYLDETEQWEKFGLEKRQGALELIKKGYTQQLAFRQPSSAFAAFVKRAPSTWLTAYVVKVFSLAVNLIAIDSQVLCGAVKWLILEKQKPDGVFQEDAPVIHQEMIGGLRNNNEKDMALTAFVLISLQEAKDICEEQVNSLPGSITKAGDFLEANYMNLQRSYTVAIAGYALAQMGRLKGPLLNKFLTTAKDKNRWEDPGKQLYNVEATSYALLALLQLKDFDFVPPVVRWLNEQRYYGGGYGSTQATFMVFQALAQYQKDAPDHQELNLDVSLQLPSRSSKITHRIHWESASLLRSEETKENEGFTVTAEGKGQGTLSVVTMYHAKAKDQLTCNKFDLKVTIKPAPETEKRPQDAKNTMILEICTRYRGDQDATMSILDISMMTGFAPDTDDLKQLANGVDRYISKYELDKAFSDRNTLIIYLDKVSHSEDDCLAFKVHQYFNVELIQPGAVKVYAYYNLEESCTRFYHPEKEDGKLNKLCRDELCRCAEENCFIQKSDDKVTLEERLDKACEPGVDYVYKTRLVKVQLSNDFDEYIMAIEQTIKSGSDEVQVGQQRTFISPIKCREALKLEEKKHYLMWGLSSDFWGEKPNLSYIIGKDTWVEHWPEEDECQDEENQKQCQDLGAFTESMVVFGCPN
attribute measured: Kd (nM)

INSERT INTO results (binder, unit_of_measure, recorded_value) VALUES
  ('anti-C3 Nanofitin B10 with N-terminal 48 kDa protein (designed binder, part only; not given: 48 kDa fusion protein, part only) chain, part: MVKVKFDATGEEKEVDTSKISAVYRTGKDVLFSYDDNGKIGWGYVSEKDAPKELLDLLARAERE', 'nM', 6.7),
  ('anti-C3 Nanofitin B10 with N-terminal peptide (10-mers) and C-terminal 30 kDa protein (designed binder, part only; not given: peptide tag and 30 kDa protein, not shown: small tags and cut ends) chain, part: MVKVKFDATGEEKEVDTSKISAVYRTGKDVLFSYDDNGKIGWGYVSEKDAPKELLDLLARAERE', 'nM', 7.3);
